Test Method Notes: Selectivity index, ratio of ED50 for human HepG2 cells to MIC for Staphylococcus epidermidis clinical isolate
Assay type: toxicity
Test Context: read-out: Selectivity Index
Square brackets hold non-standard residues; d marks the D form. Peptide text beside a SMILES is read from it. Gly(Nα-4-Cl-benzyl) = O=C(O)CNCc1ccc(Cl)cc1; Gly(N-2-aminoethyl) = NCCNCC(=O)O; Nphe = O=C(O)CNCc1ccccc1; Nlys = NCCCCNCC(=O)O
Assay Readout: selectivity ratio
Form field (numeric): enter value without unit.

Completed entries (count: 2):
Compound | Assay Readout | Value
NCCCCNCC(=O)N(CC(=O)N(CC(=O)N(CCCCN)CC(=O)N(CC(=O)N(CC(=O)N(CCCCN)CC(=O)N(CC(=O)N(CC(N)=O)Cc1ccc(Cl)cc1)Cc1ccc(Cl)cc1)Cc1ccc(Cl)cc1)Cc1ccc(Cl)cc1)Cc1ccc(Cl)cc1)Cc1ccc(Cl)cc1 (H-[Nlys][Gly(Nα-4-Cl-benzyl)][Gly(Nα-4-Cl-benzyl)][Nlys][Gly(Nα-4-Cl-benzyl)][Gly(Nα-4-Cl-benzyl)][Nlys][Gly(Nα-4-Cl-benzyl)][Gly(Nα-4-Cl-benzyl)]-NH2) | selectivity ratio | 12
NCCNCC(=O)N(CC(=O)N(CC(=O)N(CCN)CC(=O)N(CC(=O)N(CC(N)=O)Cc1ccccc1)Cc1ccccc1)Cc1ccccc1)Cc1ccccc1 (H-[Gly(N-2-aminoethyl)][Nphe][Nphe][Gly(N-2-aminoethyl)][Nphe][Nphe]-NH2) | selectivity ratio | 1

Alright, here's another compound for you.
Q: Fill blank: measured selectivity ratio of the compound NCCCCNCC(=O)N(CC(=O)N(CC(=O)N(CCCCN)CC(=O)N(CC(=O)N(CC(=O)N(CCCCN)CC(=O)N(CC(=O)N(CC(N)=O)Cc1cccc(F)c1)Cc1cccc(F)c1)Cc1cccc(F)c1)Cc1cccc(F)c1)Cc1cccc(F)c1)Cc1cccc(F)c1 is ____.
Ans: 22

* * *

Test Method Notes: Selectivity index, ratio of ED50 for human HepG2 cells to MIC for Staphylococcus epidermidis clinical isolate
Type: toxicity
Test Context: read-out: Selectivity Index
selectivity ratio: recorded values
Form field (numeric): enter value without unit.

Molecule | selectivity ratio
N=C(N)NCCCCNCC(=O)N(CC(=O)N(CC(=O)N(CCCCNC(=N)N)CC(=O)N(CC(=O)N(CC(=O)N(CCCCNC(=N)N)CC(=O)N(CC(=O)N(CC(=O)N(CCCCNC(=N)N)CC(=O)N(CC(=O)N(CC(N)=O)Cc1cccc(F)c1)Cc1cccc(F)c1)Cc1cccc(F)c1)Cc1cccc(F)c1)Cc1cccc(F)c1)Cc1cccc(F)c1)Cc1cccc(F)c1)Cc1cccc(F)c1 | 11
C[C@H](c1ccccc1)N(CC(N)=O)C(=O)CN(C(=O)CN(CCCCN)C(=O)CN(C(=O)CN(C(=O)CN(CCCCN)C(=O)CN(C(=O)CN(C(=O)CNCCCCN)[C@H](C)c1ccccc1)[C@@H](C)c1ccccc1)[C@H](C)c1ccccc1)[C@@H](C)c1ccccc1)[C@H](C)c1ccccc1 (stereo in doubt) | 50

Alright, here's another molecule for you.
Q: Fill blank: measured selectivity ratio of the molecule CC(c1ccccc1)N(CC(=O)N(CCN)CC(=O)N(CC(=O)N(CC(=O)N(CCN)CC(=O)N(CC(=O)N(CC(N)=O)[C@@H](C)c1ccccc1)[C@@H](C)c1ccccc1)C(C)c1ccccc1)[C@@H](C)c1ccccc1)C(=O)CN(C(=O)CNCCN)C(C)c1ccccc1 (single isomer, unassigned) is ____.
Ans: 8

* * *

selectivity ratio: recorded values
Test Method Notes: Selectivity index, ratio of ED50 for human HepG2 cells to MIC for Escherichia coli K-12 W3110 ATCC 27325
Assay type: toxicity
Test Context: read-out: Selectivity Index
Square brackets hold non-standard residues; d marks the D form. Peptide text beside a SMILES is read from it. N(4-F-Bzl)Gly = O=C(O)CNCc1ccc(F)cc1; Gly(N-(CH2)6NH2) = NCCCCCCNCC(=O)O; Gly(N-2-aminoethyl) = NCCNCC(=O)O; Nspe = C[C@H](NCC(=O)O)c1ccccc1; NhArg = N=C(N)NCCCCNCC(=O)O; Nphe = O=C(O)CNCc1ccccc1; Nlys = NCCCCNCC(=O)O
Form field (numeric): enter value without unit.

Completed entries (count: 5):
Molecule | selectivity ratio
CC(c1ccccc1)N(CC(=O)N(CCCCN)CC(=O)N(CC(=O)N(CC(=O)N(CCCCN)CC(=O)N(CC(=O)N(CC(N)=O)[C@@H](C)c1ccccc1)[C@@H](C)c1ccccc1)Cc1ccc(F)cc1)Cc1ccc(F)cc1)C(=O)CN(C(=O)CNCCCCN)[C@@H](C)c1ccccc1 (single isomer, unassigned) | 3
NCCNCC(=O)N(CC(=O)N(CC(=O)N(CCN)CC(=O)N(CC(=O)N(CC(N)=O)Cc1ccccc1)Cc1ccccc1)Cc1ccccc1)Cc1ccccc1 (H-[Gly(N-2-aminoethyl)][Nphe][Nphe][Gly(N-2-aminoethyl)][Nphe][Nphe]-NH2) | 1
NCCCCCCNCC(=O)N(CC(=O)N(CC(=O)N(CCCCCCN)CC(=O)N(CC(=O)N(CC(N)=O)Cc1ccccc1)Cc1ccccc1)Cc1ccccc1)Cc1ccccc1 (H-[Gly(N-(CH2)6NH2)][Nphe][Nphe][Gly(N-(CH2)6NH2)][Nphe][Nphe]-NH2) | 1
C[C@@H](c1ccccc1)N(CC(N)=O)C(=O)CN(C(=O)CN(CCCCCCN)C(=O)CN(C(=O)CN(C(=O)CN(CCCCCCN)C(=O)CN(C(=O)CN(C(=O)CNCCCCCCN)[C@@H](C)c1ccccc1)[C@@H](C)c1ccccc1)[C@@H](C)c1ccccc1)[C@@H](C)c1ccccc1)[C@@H](C)c1ccccc1 (H-[Gly(N-(CH2)6NH2)][Nspe][Nspe][Gly(N-(CH2)6NH2)][Nspe][Nspe][Gly(N-(CH2)6NH2)][Nspe][Nspe]-NH2) | 4
C[C@@H](c1ccccc1)N(CC(N)=O)C(=O)CN(C(=O)CN(CCN)C(=O)CN(C(=O)CN(C(=O)CNCCN)[C@@H](C)c1ccccc1)[C@@H](C)c1ccccc1)[C@@H](C)c1ccccc1 | 1

Q: Fill blank: measured selectivity ratio of the molecule NCCCCCCNCC(=O)N(CC(=O)N(CC(=O)N(CCCCCCN)CC(=O)N(CC(=O)N(CC(=O)N(CCCCCCN)CC(=O)N(CC(=O)N(CC(N)=O)Cc1ccccc1)Cc1ccccc1)Cc1ccccc1)Cc1ccccc1)Cc1ccccc1)Cc1ccccc1 (H-[Gly(N-(CH2)6NH2)][Nphe][Nphe][Gly(N-(CH2)6NH2)][Nphe][Nphe][Gly(N-(CH2)6NH2)][Nphe][Nphe]-NH2) is ____.
Ans: 2

Q: Fill blank: measured selectivity ratio of the molecule C[C@@H](c1ccccc1)N(CC(N)=O)C(=O)CN(C(=O)CN(CCCCN)C(=O)CN(C(=O)CN(C(=O)CNCCCCN)[C@@H](C)c1ccccc1)[C@@H](C)c1ccccc1)[C@@H](C)c1ccccc1 (H-[Nlys][Nspe][Nspe][Nlys][Nspe][Nspe]-NH2) is ____.
Ans: 1

Q: Fill blank: measured selectivity ratio of the molecule NCCCCNCC(=O)N(CC(=O)N(CC(=O)N(CCCCN)CC(=O)N(CC(=O)N(CC(=O)N(CCCCN)CC(=O)N(CC(=O)N(CC(N)=O)Cc1ccc(F)cc1)Cc1ccc(F)cc1)Cc1ccc(F)cc1)Cc1ccc(F)cc1)Cc1ccc(F)cc1)Cc1ccc(F)cc1 (H-[Nlys][N(4-F-Bzl)Gly][N(4-F-Bzl)Gly][Nlys][N(4-F-Bzl)Gly][N(4-F-Bzl)Gly][Nlys][N(4-F-Bzl)Gly][N(4-F-Bzl)Gly]-NH2) is ____.
Ans: 3

Q: Fill blank: measured selectivity ratio of the molecule NCCCCCCNCC(=O)N(CC(=O)N(CC(=O)N(CCCCCCN)CC(=O)N(CC(=O)N(CC(=O)N(CCCCCCN)CC(=O)N(CC(=O)N(CC(=O)N(CCCCCCN)CC(=O)N(CC(=O)N(CC(N)=O)Cc1ccccc1)Cc1ccccc1)Cc1ccccc1)Cc1ccccc1)Cc1ccccc1)Cc1ccccc1)Cc1ccccc1)Cc1ccccc1 (H-[Gly(N-(CH2)6NH2)][Nphe][Nphe][Gly(N-(CH2)6NH2)][Nphe][Nphe][Gly(N-(CH2)6NH2)][Nphe][Nphe][Gly(N-(CH2)6NH2)][Nphe][Nphe]-NH2) is ____.
Ans: 8

Q: Fill blank: measured selectivity ratio of the molecule NCCCCNCC(=O)N(CC(=O)N(CC(=O)N(CCCCN)CC(=O)N(CC(=O)N(CC(=O)N(CCCCN)CC(=O)N(CC(=O)N(CC(=O)N(CCCCN)CC(=O)N(CC(=O)N(CC(N)=O)Cc1cccc(F)c1)Cc1cccc(F)c1)Cc1cccc(F)c1)Cc1cccc(F)c1)Cc1cccc(F)c1)Cc1cccc(F)c1)Cc1cccc(F)c1)Cc1cccc(F)c1 is ____.
Ans: 1

Q: Fill blank: measured selectivity ratio of the molecule C[C@@H](c1ccccc1)N(CC(N)=O)C(=O)CN(C(=O)CN(CCCCN)C(=O)CN(C(=O)CN(C(=O)CN(CCCCN)C(=O)CN(C(=O)CN(C(=O)CN(CCCCNC(=N)N)C(=O)CN(C(=O)CN(C(=O)CNCCCCN)[C@@H](C)c1ccccc1)[C@@H](C)c1ccccc1)[C@@H](C)c1ccccc1)[C@@H](C)c1ccccc1)[C@@H](C)c1ccccc1)[C@@H](C)c1ccccc1)[C@@H](C)c1ccccc1 (H-[Nlys][Nspe][Nspe][NhArg][Nspe][Nspe][Nlys][Nspe][Nspe][Nlys][Nspe][Nspe]-NH2) is ____.
Ans: 2

Q: Fill blank: measured selectivity ratio of the molecule COc1ccc(CN(CC(N)=O)C(=O)CN(Cc2ccc(OC)cc2)C(=O)CN(CCCCN)C(=O)CN(Cc2ccc(OC)cc2)C(=O)CN(Cc2ccc(OC)cc2)C(=O)CN(CCCCN)C(=O)CN(Cc2ccc(OC)cc2)C(=O)CN(Cc2ccc(OC)cc2)C(=O)CN(CCCCN)C(=O)CN(Cc2ccc(OC)cc2)C(=O)CN(Cc2ccc(OC)cc2)C(=O)CNCCCCN)cc1 is ____.
Ans: 1
